Source of measurements: PubChem BioAssay (NCI)

# Tested on: UO-31 renal
# assay remarks: NCI tumour cell line growth inhibition, 48 h
experimental endpoint: TGI

>>> measured("Cc1ccc(S(=O)(=O)CNC(=O)C(O)(O)C(F)(F)F)cc1")
"> 100 µM"
>>> measured("ClCc1cccc(Cn2cnc3c(Cl)nc(Cl)nc32)c1")
"3.06 µM"
>>> measured("CCOc1ccc(N=C2NC(=O)C(CC(=O)Nc3ccccc3[N+](=O)[O-])S2)cc1 (stereo not given)")
"> 100 µM"
>>> measured("CCOC(=O)/C=C/c1c(C)[nH]c(=O)[nH]c1=O")
"> 250 µM"
>>> measured("CCOC(=O)C1Cc2ccc3c4c(ccc(c24)C1)CC(C(=O)OCC)C3")
"> 100 µM"
>>> measured("O=[N+]([O-])c1cc([As](Br)c2ccc(O)c([N+](=O)[O-])c2)ccc1O")
"3.23 µM"
>>> measured("CC(=O)C(C)C(=O)N1C(=O)N(C)C2(C)N(C)C(=O)NC12C (stereo not given)")
"> 100 µM"
>>> measured("COc1ccc(-c2oc3cc(OC)c(OC)c(O)c3c(=O)c2OC)cc1")
"> 100 µM"
>>> measured("CCCCc1ccc(-n2sc3ncc(-c4ccccc4)cc3c2=O)cc1")
"> 100 µM"
>>> measured("O=C(c1ccc2ccccc2c1)c1nc2cc(F)ccc2[n+]([O-])c1C(F)(F)F")
"48.8 µM"

---

# Tested on: CAKI-1 renal
# assay remarks: NCI tumour cell line growth inhibition, 48 h
Reported TGI values follow for various molecules
experimental endpoint: TGI

>>> measured("CC(C)(C)OC(=O)N1NC(c2ccccc2)CC1c1ccccc1 (configuration not stated)")
"> 100 µM"
>>> measured("O=C(N/N=C\\c1cccc2ccccc12)Nc1ccccc1")
"> 100 µM"
>>> measured("NC(=O)CSc1c2cc(O)ccc2nc2ccc(O)cc12")
"> 10 µM"
>>> measured("Clc1ccc2c(NCCCCN3OC3c3ccccc3)ccnc2c1 (configuration not stated)")
"21.8 µM"
>>> measured("COc1ccc(/C=C(\\NC(=O)c2ccccc2)c2nc3ccccc3[nH]2)cc1OC")
"> 100 µM"
>>> measured("N#Cc1c2ccc([N+](=O)[O-])cc2c(=O)n2c1[nH]c1ccc(C(F)(F)F)cc12")
"> 100 µM"
>>> measured("Cn1cc(-c2cc(-c3cn(C)c4ccc(Cl)cc34)[nH]n2)c2cc(Cl)ccc21")
"6.05 µM"

---

# Test system: EKVX NSCLC
# assay remarks: NCI tumour cell line growth inhibition, 48 h
experimental endpoint: TGI

>>> measured("Cc1ccc(/C=C2\\NC(=S)NC2=O)cc1")
"> 100 µM"
>>> measured("FC(F)(F)c1ccc(-c2nn3ncccc3c2-c2ccnc(Nc3ccc4c(c3)OCCO4)n2)cc1")
"> 25 µM"
>>> measured("Nc1nc(N)c2cc(Sc3ccc4ccccc4c3)ccc2n1")
"14.5 µM"
>>> measured("COc1ccc2c(O)c(S(=O)(=O)c3ccc(C)cc3)c(=O)oc2c1OC")
"> 100 µM"
>>> measured("CC(=O)OC(C(=O)[O][Sn]([CH3])([CH3])[CH3])c1ccccc1 (configuration not stated)")
"> 100 µM"
>>> measured("c1ccc2c(c1)NCc1cc3ccccc3nc1O2")
"> 100 µM"
>>> measured("O=c1[nH]nc(-c2ccccc2)n1/N=C/c1cccc([N+](=O)[O-])c1")
"> 100 µM"
>>> measured("O=c1[nH]ncc2[nH]c3c4ccccc4ccc3c12")
"> 100 µM"
>>> measured("C[C@H]1C2Cc3cc(O)ccc3[C@@]1(C)CCN2CCc1ccc(N)cc1")
"> 100 µM"
>>> measured("CCCC(=O)N[C@H]1CCc2cc(OC)c(OC)c(OC)c2-c2ccc(SC)c(=O)cc21")
"> 100 µM"
>>> measured("CC(=O)O[C@H]1CC[C@@]2(C)C(=CC[C@@H]3[C@@H]2CC[C@]2(C)c4c(n[nH]c4C)C[C@@H]32)C1")
"34.7 µM"
>>> measured("O=C(c1ccccc1)N1C(=O)N(c2ccccc2)C(=Nc2ccccc2)C1=Nc1ccccc1")
"> 100 µM"
>>> measured("CC(=O)c1ccc2c(c1)N(CCCN1CCN(CCO)CC1)c1ccccc1S2")
"21 µM"
>>> measured("Cc1ccc(O)c(C2=CC3=NNC(=O)C3C(c3cccc(Cl)c3)C2)c1 (configuration not stated)")
"> 100 µM"
>>> measured("ClCc1cccc(Cn2cnc3c(Cl)nc(Cl)nc32)c1")
"3.35 µM"
>>> measured("CC(=O)c1cccc(NC(=O)C(=O)c2c(O)c3ccccc3oc2=O)c1")
"> 100 µM"
>>> measured("COc1ccc(-c2c(C#N)c(N)nc(N3CCOCC3)c2C#N)cc1")
"> 100 µM"
>>> measured("Cn1c(=Nc2ccc(Cl)cc2)sc2ccccc21")
"> 100 µM"
>>> measured("CCOc1ccc(N=C2NC(=O)C(CC(=O)Nc3ccccc3[N+](=O)[O-])S2)cc1 (configuration not stated)")
"> 100 µM"
>>> measured("COc1ccc2oc(S(=O)(=O)N3CC(CCl)c4ccc(N)cc43)cc2c1 (configuration not stated)")
"> 100 µM"
>>> measured("COc1ccc(-c2oc3cc(OC)c(OC)c(O)c3c(=O)c2OC)cc1")
"> 100 µM"
>>> measured("Cc1ccc2nc3n[nH]c(N)c3nc2c1")
"> 100 µM"
>>> measured("O=C(Cn1cc(Br)c(=O)[nH]c1=O)c1ccc(-c2ccccc2)cc1")
"> 100 µM"
>>> measured("CN(C)c1ccc(/C=C(\\NC(=O)c2ccccc2)c2nc3ccc4c(c3[nH]2)C(=O)c2ccccc2C4=O)cc1")
"> 100 µM"
>>> measured("c1cc2c3c(c1)c1cc4c(cc1c[n+]3CC2)OCO4")
"14.4 µM"
>>> measured("O=C(/C=C1\\Sc2ccccc2N=C1CC(=O)c1ccccc1)c1ccccc1")
"37.4 µM"
>>> measured("C/C(=N\\NC(=S)N1CCC(N2CCCCC2)CC1)c1ccccn1")
"12.1 µM"
>>> measured("CCOc1cc(/C=C/C(=O)C(C(=O)/C=C/c2ccc(OC(=O)CNc3nc4ccccc4[nH]3)c(OCC)c2)C(=O)CNc2nc3ccccc3[nH]2)ccc1OC(=O)CNc1nc2ccccc2[nH]1")
"5.37 µM"
>>> measured("COc1cc(F)ccc1-c1cc(Nc2cc(CS(C)(=N)=O)ccn2)ncc1F (configuration not stated)")
"8.63 µM"
>>> measured("c1ccc2cc3c(NC4=NCCO4)cccc3cc2c1")
"> 100 µM"
>>> measured("O=C(NN1C(=O)CSC1c1cccc(Cl)c1)C(O)c1ccccc1 (configuration not stated)")
"> 100 µM"
>>> measured("Clc1ccc(-c2cc(-c3cc4cc(Br)ccc4nc3Cl)on2)cc1")
"36.2 µM"
>>> measured("Cc1cn(-c2cccc(NC(=O)c3ccc(C)c(Nc4nccc(-c5cccnc5)n4)c3)c2)cn1")
"6 µM"
>>> measured("O=c1[nH]c(SCc2cccc([N+](=O)[O-])c2)nc2nc[nH]c12")
"> 100 µM"
>>> measured("CC1=Nc2ccccc2SC(c2c(Cl)cccc2Cl)C1 (configuration not stated)")
"3.82 µM"
>>> measured("CN(Cc1ccc(F)cc1)c1ccc(CO)c(Cl)c1")
"> 100 µM"
>>> measured("Nc1nc2ccc(Sc3ccc4nc(N)[nH]c(=O)c4c3)cc2c(=O)[nH]1")
"> 100 µM"
>>> measured("CN(C)CCCOc1cccc(NC2=C(Cl)C(=O)C(Nc3cccc(OCCCN(C)C)c3)=C(Cl)C2=O)c1")
"2.54 µM"
>>> measured("CCOC(=O)/C=C/c1c(C)[nH]c(=O)[nH]c1=O")
"> 250 µM"
>>> measured("CC(Oc1ccc(Oc2cnc3ccc(Cl)cc3n2)cc1)C(=O)O (configuration not stated)")
"> 100 µM"
>>> measured("Nc1ccc(-c2nc3ccc(F)cc3s2)cc1Cl")
"> 100 µM"
>>> measured("CC(C)(C)C(=O)Oc1ccc(/C=C/C(=O)c2ccc(OC(=O)C(C)(C)C)cc2)cc1")
"> 100 µM"

---

# Tested on: UACC-62 melanoma
# assay remarks: NCI tumour cell line growth inhibition, 48 h
Recorded measurements of TGI, one per entry
experimental endpoint: TGI (µM)

>>> measured("Oc1ccc(/C=C/c2cccc(/C=C/c3ccc(O)c(O)c3)n2)cc1O")
18.6
>>> measured("CN(Cc1ccc(F)cc1)c1ccc(CO)c(Cl)c1")
3.32
>>> measured("COc1ccc(/C=C2\\CCC(CCN(C)C)(C3=CCCC3)C2=O)cc1 (stereo not given)")
30.3
>>> measured("CCSc1ccc([C@@H]2[C@@H](O)C(=O)N2c2cc(OC)c(OC)c(OC)c2)cc1")
20.1

---

// reported TGI per item
# Tested on: HS 578T breast
# assay remarks: NCI tumour cell line growth inhibition, 48 h
experimental endpoint: TGI (µM)

>>> measured("CCOc1cc(/C=C/C(=O)C(C(=O)/C=C/c2ccc(OC(=O)CNc3nc4ccccc4[nH]3)c(OCC)c2)C(=O)CNc2nc3ccccc3[nH]2)ccc1OC(=O)CNc1nc2ccccc2[nH]1")
5.18
>>> measured("O=C(O)c1nc2ccc(C(F)(F)F)cc2nc1Nc1ccc(Cl)c(Cl)c1")
41.6
>>> measured("Cc1cn(-c2cccc(NC(=O)c3ccc(C)c(Nc4nccc(-c5cccnc5)n4)c3)c2)cn1")
5.43
>>> measured("O=c1[nH]nc(-c2ccccc2)n1/N=C/c1ccccc1O")
96.2
